Test system: 3β-hydroxysterol synthesis
Test: Test B. In Vivo Cholesterol Biosynthesis Inhibition Test
Conditions: Rattus norvegicus, po; rats, orally administered, 0.01-200 mg/kg body weight; read-out: ED50, dose producing a 50% inhibition of 3β-hydroxysterol synthesis
Counter-ions that a name gives are not always drawn.
readout.label: ED50 (mg/kg)
Response body: numeric value in mg/kg, unit text excluded.

*Q* Lab request: please report ED50 under test system 3β-hydroxysterol synthesis for CC[C@H](C)C(=O)O[C@H]1C[C@@H](C)C=C2C=C[C@H](C)[C@H](CC[C@@H]3C[C@@H](O)CC(=O)O3)[C@H]21 [Mevinolin, reference compound]
*A* 0.41

*Q* Lab request: please report ED50 under test system 3β-hydroxysterol synthesis for CC(C)c1oc(-c2ccccc2)c(-c2ccc(F)cc2)c1/C=C/C(O)CC(O)CC(=O)O (centres unmarked) [Example 5b]
*A* 0.35

*Q* Lab request: please report ED50 under test system 3β-hydroxysterol synthesis for CC[C@H](C)C(=O)O[C@H]1CCC=C2C=C[C@H](C)[C@H](CC[C@@H]3C[C@@H](O)CC(=O)O3)[C@H]21 [Compactin, reference compound]
*A* 3.5

*Q* Lab request: please report ED50 under test system 3β-hydroxysterol synthesis for CC(C)c1sc(C(C)C)c(-c2ccc(F)cc2)c1/C=C/C(O)CC(O)CC(=O)O (centres unmarked) [Example 8 (sodium salt)]
*A* 0.076

*Q* Lab request: please report ED50 under test system 3β-hydroxysterol synthesis for CC(C)c1sc(-c2ccccc2)c(-c2ccccc2)c1/C=C/C(O)CC(O)CC(=O)O (centres unmarked) [Example 5c]
*A* 0.169

====

Molecular target: HMG-CoA reductase (Rattus norvegicus, UniProt P51639)
Sequence (P51639 1-887): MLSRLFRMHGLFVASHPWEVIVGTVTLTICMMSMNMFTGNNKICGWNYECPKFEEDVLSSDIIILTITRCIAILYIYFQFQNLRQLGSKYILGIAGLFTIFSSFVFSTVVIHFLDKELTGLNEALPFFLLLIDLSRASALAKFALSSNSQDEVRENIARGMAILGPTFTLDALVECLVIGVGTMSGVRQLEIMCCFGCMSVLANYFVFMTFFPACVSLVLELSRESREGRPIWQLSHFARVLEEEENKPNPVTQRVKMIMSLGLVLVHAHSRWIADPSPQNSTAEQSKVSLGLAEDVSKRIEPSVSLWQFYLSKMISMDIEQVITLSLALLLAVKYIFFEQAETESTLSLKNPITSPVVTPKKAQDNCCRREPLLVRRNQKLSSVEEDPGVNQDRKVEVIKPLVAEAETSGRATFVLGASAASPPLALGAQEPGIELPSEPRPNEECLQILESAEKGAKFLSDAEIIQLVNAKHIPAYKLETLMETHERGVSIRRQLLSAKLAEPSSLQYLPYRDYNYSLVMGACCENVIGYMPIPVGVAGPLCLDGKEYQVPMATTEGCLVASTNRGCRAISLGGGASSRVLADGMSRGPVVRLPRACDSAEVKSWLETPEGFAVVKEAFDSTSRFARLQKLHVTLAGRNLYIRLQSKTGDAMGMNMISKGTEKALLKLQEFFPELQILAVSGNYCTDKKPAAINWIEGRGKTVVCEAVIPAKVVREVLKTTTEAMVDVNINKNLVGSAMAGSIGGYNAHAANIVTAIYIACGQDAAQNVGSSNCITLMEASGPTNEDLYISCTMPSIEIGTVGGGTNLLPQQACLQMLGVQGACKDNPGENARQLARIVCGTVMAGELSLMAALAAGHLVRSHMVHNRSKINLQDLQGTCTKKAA
Counter-ions that a name gives are not always drawn.
readout.label: IC50 (µM)
Response body: numeric value in µM, unit text excluded.

*Q* Please give the measured IC50 for this molecule: CC(C)c1oc(-c2ccccc2)c(-c2ccc(F)cc2)c1/C=C/C(O)CC(O)CC(=O)O (stereo not drawn)
*A* 0.19

More entries:
*Q* Please give the measured IC50 for this molecule: CC(C)c1sc(C(C)C)c(-c2ccc(F)cc2)c1/C=C/C(O)CC(O)CC(=O)O (stereo not drawn) [Example 8 (sodium salt)]
*A* 0.027

*Q* Please give the measured IC50 for this molecule: CC(C)c1sc(-c2ccccc2)c(-c2ccccc2)c1/C=C/C(O)CC(O)CC(=O)O (stereo not drawn)
*A* 0.028
